Conditions: 278.15 K; 101.33 kPa; Liquid; Vibrating tube method
MEASURE: mass density (kg/m3)
Record the value in kg/m3, omitting the unit from your answer.

INPUT: I am curious: what mass density value has been reported for CCCCCCCCCCCCCC[P+](CCCCCC)(CCCCCC)CCCCCC.CS(=O)(=O)[O-] [trihexyltetradecylphosphonium methanesulfonate] ?
OUTPUT: 940.5

INPUT: // next record `CCCCCCCCCCCCCC[P+](CCCCCC)(CCCCCC)CCCCCC.O=S(=O)([N-]S(=O)(=O)C(F)(F)F)C(F)(F)F`
OUTPUT: 1081.1

INPUT: Next: `CC(CC(C)(C)C)CP(=O)([O-])CC(C)CC(C)(C)C.CCCCCCCCCCCCCC[P+](CCCCCC)(CCCCCC)CCCCCC`
OUTPUT: 897.3

INPUT: Would you kindly repeat that for CCCCCCCCCCCCCC[P+](CCCCCC)(CCCCCC)CCCCCC.[Cl-] [trihexyl(tetradecyl)phosphonium chloride] ?
OUTPUT: 901.6

INPUT: Here is the next compound: CCCCCCCCCCCCCC[P+](CCCCCC)(CCCCCC)CCCCCC.[Br-] [tetradecyltrihexylphosphonium bromide]
OUTPUT: 967.5

INPUT: Try this compound too: CCCCCCCCCC(=O)[O-].CCCCCCCCCCCCCC[P+](CCCCCC)(CCCCCC)CCCCCC [trihexyltetradecylphosphonium decanoate]
OUTPUT: 893.2

INPUT: And CCCCCCCCCCCCCC[P+](CCCCCC)(CCCCCC)CCCCCC.N#C[N-]C#N [tetradecyl(trihexyl)phosphonium dicyanamide] ?
OUTPUT: 910.8

====

Conditions: 323.15 K; 101.33 kPa; Liquid; Concentric cylinders viscometry
MEASURE: viscosity (mPa·s)
Supply the numeric figure in mPa·s, leaving out any unit text.

INPUT: Need viscosity of `CC(CC(C)(C)C)CP(=O)([O-])CC(C)CC(C)(C)C.CCCCCCCCCCCCCC[P+](CCCCCC)(CCCCCC)CCCCCC` , thanks.
OUTPUT: 365.83

INPUT: Now consider CCCCCCCCCCCCCC[P+](CCCCCC)(CCCCCC)CCCCCC.[Cl-] [trihexyl(tetradecyl)phosphonium chloride] .
OUTPUT: 525.98

INPUT: Let us now turn to CCCCCCCCCCCCCC[P+](CCCCCC)(CCCCCC)CCCCCC.[Br-] [tetradecyltrihexylphosphonium bromide]
OUTPUT: 568.06

INPUT: CCCCCCCCCCCCCC[P+](CCCCCC)(CCCCCC)CCCCCC.N#C[N-]C#N [tetradecyl(trihexyl)phosphonium dicyanamide] , same question.
OUTPUT: 121.78

INPUT: Please answer likewise for `CCCCCCCCCCCCCC[P+](CCCCCC)(CCCCCC)CCCCCC.O=S(=O)([N-]S(=O)(=O)C(F)(F)F)C(F)(F)F`
OUTPUT: 95.81

INPUT: And what about the molecule CCCCCCCCCC(=O)[O-].CCCCCCCCCCCCCC[P+](CCCCCC)(CCCCCC)CCCCCC [trihexyltetradecylphosphonium decanoate] ?
OUTPUT: 130.01

INPUT: Another molecule: CCCCCCCCCCCCCC[P+](CCCCCC)(CCCCCC)CCCCCC.CS(=O)(=O)[O-] [trihexyltetradecylphosphonium methanesulfonate]
OUTPUT: 277.77

====

Field: viscosity. Provide a value for each of the compounds that follow.
Conditions: 353.15 K; 101.33 kPa; Liquid; Concentric cylinders viscometry
Return type: number; implicit unit mPa·s.

INPUT: Tell me the measured viscosity of CCCCCCCCCCCCCC[P+](CCCCCC)(CCCCCC)CCCCCC.[Cl-] [trihexyl(tetradecyl)phosphonium chloride] , please.
OUTPUT: 120.11

INPUT: Next up: CCCCCCCCCCCCCC[P+](CCCCCC)(CCCCCC)CCCCCC.[Br-] [tetradecyltrihexylphosphonium bromide]
OUTPUT: 128.21

INPUT: Similarly, CCCCCCCCCCCCCC[P+](CCCCCC)(CCCCCC)CCCCCC.CS(=O)(=O)[O-] [trihexyltetradecylphosphonium methanesulfonate] ?
OUTPUT: 68.01

INPUT: Please give the result for CCCCCCCCCC(=O)[O-].CCCCCCCCCCCCCC[P+](CCCCCC)(CCCCCC)CCCCCC [trihexyltetradecylphosphonium decanoate] too.
OUTPUT: 42.54

INPUT: Now the compound CCCCCCCCCCCCCC[P+](CCCCCC)(CCCCCC)CCCCCC.N#C[N-]C#N [tetradecyl(trihexyl)phosphonium dicyanamide]
OUTPUT: 38.53

INPUT: Ok, now `CCCCCCCCCCCCCC[P+](CCCCCC)(CCCCCC)CCCCCC.O=S(=O)([N-]S(=O)(=O)C(F)(F)F)C(F)(F)F`
OUTPUT: 31.41

INPUT: Next entry: `CC(CC(C)(C)C)CP(=O)([O-])CC(C)CC(C)(C)C.CCCCCCCCCCCCCC[P+](CCCCCC)(CCCCCC)CCCCCC`
OUTPUT: 105.22

====

Settings: 358.15 K; 101.33 kPa; Liquid; Concentric cylinders viscometry
Field: viscosity. Provide a value for each of the compounds that follow.
Report only the number, with the unit mPa·s understood.

INPUT: Look up viscosity: CCCCCCCCCCCCCC[P+](CCCCCC)(CCCCCC)CCCCCC.CS(=O)(=O)[O-] [trihexyltetradecylphosphonium methanesulfonate]
OUTPUT: 56.06

INPUT: Also CCCCCCCCCCCCCC[P+](CCCCCC)(CCCCCC)CCCCCC.[Cl-] [trihexyl(tetradecyl)phosphonium chloride] , if possible.
OUTPUT: 97.66

INPUT: Also, CCCCCCCCCCCCCC[P+](CCCCCC)(CCCCCC)CCCCCC.N#C[N-]C#N [tetradecyl(trihexyl)phosphonium dicyanamide] please.
OUTPUT: 32.85

INPUT: Next record, please: CCCCCCCCCC(=O)[O-].CCCCCCCCCCCCCC[P+](CCCCCC)(CCCCCC)CCCCCC [trihexyltetradecylphosphonium decanoate]
OUTPUT: 36.46

INPUT: Quick one: `CCCCCCCCCCCCCC[P+](CCCCCC)(CCCCCC)CCCCCC.O=S(=O)([N-]S(=O)(=O)C(F)(F)F)C(F)(F)F`
OUTPUT: 26.91

INPUT: Can you check `CC(CC(C)(C)C)CP(=O)([O-])CC(C)CC(C)(C)C.CCCCCCCCCCCCCC[P+](CCCCCC)(CCCCCC)CCCCCC` next?
OUTPUT: 87.92

INPUT: Please give the result for CCCCCCCCCCCCCC[P+](CCCCCC)(CCCCCC)CCCCCC.[Br-] [tetradecyltrihexylphosphonium bromide] too.
OUTPUT: 104.15

====

Conditions: 318.15 K; 101.33 kPa; Liquid; Vibrating tube method
MEASURE: mass density (kg/m3)
// note: answer is a bare numeric in kg/m3

INPUT: Returns the measured mass density for the input molecule. Input: CCCCCCCCCCCCCC[P+](CCCCCC)(CCCCCC)CCCCCC.[Cl-] [trihexyl(tetradecyl)phosphonium chloride]
OUTPUT: 878.2

INPUT: // repeat for CCCCCCCCCCCCCC[P+](CCCCCC)(CCCCCC)CCCCCC.CS(=O)(=O)[O-] [trihexyltetradecylphosphonium methanesulfonate] and report
OUTPUT: 915.9

INPUT: Similarly, CCCCCCCCCCCCCC[P+](CCCCCC)(CCCCCC)CCCCCC.[Br-] [tetradecyltrihexylphosphonium bromide] ?
OUTPUT: 942.9

====

For each record, write down the corresponding mass density.
Conditions: 328.15 K; 101.33 kPa; Liquid; Vibrating tube method
Dear colleague, please return just the value in kg/m3, with no unit written.

INPUT: If you can, please state the reported mass density value of `CC(CC(C)(C)C)CP(=O)([O-])CC(C)CC(C)(C)C.CCCCCCCCCCCCCC[P+](CCCCCC)(CCCCCC)CCCCCC` .
OUTPUT: 867.5

INPUT: Request: CCCCCCCCCCCCCC[P+](CCCCCC)(CCCCCC)CCCCCC.[Br-] [tetradecyltrihexylphosphonium bromide]
OUTPUT: 936.7

INPUT: Let us now turn to CCCCCCCCCCCCCC[P+](CCCCCC)(CCCCCC)CCCCCC.N#C[N-]C#N [tetradecyl(trihexyl)phosphonium dicyanamide]
OUTPUT: 882

INPUT: Try CCCCCCCCCCCCCC[P+](CCCCCC)(CCCCCC)CCCCCC.CS(=O)(=O)[O-] [trihexyltetradecylphosphonium methanesulfonate] next.
OUTPUT: 909.9

INPUT: Next: CCCCCCCCCC(=O)[O-].CCCCCCCCCCCCCC[P+](CCCCCC)(CCCCCC)CCCCCC [trihexyltetradecylphosphonium decanoate]
OUTPUT: 862.2

INPUT: Could you do the same for `CCCCCCCCCCCCCC[P+](CCCCCC)(CCCCCC)CCCCCC.O=S(=O)([N-]S(=O)(=O)C(F)(F)F)C(F)(F)F` , please?
OUTPUT: 1044.4

INPUT: And what about the molecule CCCCCCCCCCCCCC[P+](CCCCCC)(CCCCCC)CCCCCC.[Cl-] [trihexyl(tetradecyl)phosphonium chloride] ?
OUTPUT: 872.3
